- protocol.summary: Toxicity (Irwin's test)
- Assay type: in vivo
- conditions: mice, intraperitoneal
assay.readout: Lethal dose (death of two animals out of three within 48 hours) (mg/kg)

[
  {
    "query.smiles": "CCCc1nc(NCCOC(N)=O)nc(N2CCOCC2)n1",
    "relation.operator": ">",
    "endpoint.result": 931
  },
  {
    "query.smiles": "CCCc1nc(NC[C@H](C)O)nc(N2CCOCC2)n1",
    "relation.operator": "=",
    "endpoint.result": 844
  },
  {
    "query.smiles": "CCCc1nc(NC(=O)c2ccc(C)cc2)nc(N2CCOCC2)n1",
    "relation.operator": "=",
    "endpoint.result": 1132
  },
  {
    "query.smiles": "CCCc1nc(NCCOC(=O)c2ccccc2)nc(N2CCOCC2)n1",
    "relation.operator": ">",
    "endpoint.result": 1114
  },
  {
    "query.smiles": "CCCc1nc(NC(C)(C)CO)nc(N2CCOCC2)n1",
    "relation.operator": "=",
    "endpoint.result": 886
  },
  {
    "query.smiles": "CCCc1nc(N2CCOCC2)nc(N(C)C(=O)c2ccc(C)cc2)n1",
    "relation.operator": "=",
    "endpoint.result": 1174
  },
  {
    "query.smiles": "CCCc1nc(NCC2(O)CCCCC2)nc(N2CCOCC2)n1",
    "relation.operator": "=",
    "endpoint.result": 1007
  },
  {
    "query.smiles": "CCCc1nc(NCCOC)nc(N2CCOCC2)n1",
    "relation.operator": "=",
    "endpoint.result": 844
  },
  {
    "query.smiles": "CCCc1nc(NCCOC(=O)Cc2ccccc2)nc(N2CCOCC2)n1",
    "relation.operator": "=",
    "endpoint.result": 1157
  },
  {
    "query.smiles": "CCCc1nc(NCCOC(C)=O)nc(N2CCOCC2)n1",
    "relation.operator": "=",
    "endpoint.result": 928
  }
]

----------
- protocol.summary: Toxicity (Irwin's test)
- Type: in vivo
- conditions: mice, intraperitoneal
Entries annotated with measured Lethal dose (death of two animals out of three within 48 hours)
assay.readout: Lethal dose (death of two animals out of three within 48 hours) (mg/kg)

[
  {
    "molecule": "CCCc1nc(NC(=O)c2ccccc2)nc(N2CCOCC2)n1.Cl",
    "relation.operator": "=",
    "endpoint.result": 1091
  },
  {
    "molecule": "CCCc1nc(NC(=O)c2ccc(OC)cc2)nc(N2CCOCC2)n1",
    "relation.operator": "=",
    "endpoint.result": 511
  },
  {
    "molecule": "CCCc1nc(NC(=O)c2ccc(Cl)cc2)nc(N2CCOCC2)n1",
    "relation.operator": "=",
    "endpoint.result": 398
  },
  {
    "molecule": "CCCc1nc(N2CCOCC2)nc(N2CCCC2CO)n1 (stereo not drawn)",
    "relation.operator": "=",
    "endpoint.result": 1031
  },
  {
    "molecule": "CCCc1nc(NCC(O)CO)nc(N2CCOCC2)n1 (stereo not drawn)",
    "relation.operator": "=",
    "endpoint.result": 892
  },
  {
    "molecule": "CCCc1nc(NC(C)(CO)CO)nc(N2CCOCC2)n1",
    "relation.operator": "=",
    "endpoint.result": 934
  },
  {
    "molecule": "CCCc1nc(NC(=O)C(C)C)nc(N2CCOCC2)n1",
    "relation.operator": "=",
    "endpoint.result": 880
  },
  {
    "molecule": "CCCc1nc(NC(=O)N(C)C)nc(N2CCOCC2)n1",
    "relation.operator": "=",
    "endpoint.result": 294
  },
  {
    "molecule": "CCCc1nc(NC(=O)Cc2ccccc2)nc(N2CCOCC2)n1",
    "relation.operator": ">",
    "endpoint.result": 1024
  },
  {
    "molecule": "CCCc1nc(NCCOC(=O)C(C)C)nc(N2CCOCC2)n1",
    "relation.operator": ">",
    "endpoint.result": 1012
  },
  {
    "molecule": "CCCc1nc(NCCCO)nc(N2CCOCC2)n1",
    "relation.operator": "=",
    "endpoint.result": 844
  },
  {
    "molecule": "CCCc1nc(N2CCOCC2)nc(N(C)C(C)=O)n1",
    "relation.operator": "=",
    "endpoint.result": 947
  },
  {
    "molecule": "CCCc1nc(NC[C@@H](C)O)nc(N2CCOCC2)n1",
    "relation.operator": "=",
    "endpoint.result": 844
  },
  {
    "molecule": "CCCc1nc(N2CCOCC2)nc(N(C)C(=O)c2ccc(Cl)cc2)n1",
    "relation.operator": "=",
    "endpoint.result": 1125
  },
  {
    "molecule": "CCCc1nc(N2CCOCC2)nc(N(C)C(=O)c2ccc(OC)cc2)n1",
    "relation.operator": "=",
    "endpoint.result": 1222
  },
  {
    "molecule": "CCCc1nc(NCCO)nc(N2CCOCC2)n1",
    "relation.operator": "=",
    "endpoint.result": 802
  },
  {
    "molecule": "CCCc1nc(NCCCCO)nc(N2CCOCC2)n1",
    "relation.operator": "=",
    "endpoint.result": 886
  },
  {
    "molecule": "CCCc1nc(NO)nc(N2CCOCC2)n1",
    "relation.operator": "=",
    "endpoint.result": 718
  },
  {
    "molecule": "CCCc1nc(N2CCOCC2)nc(N(CCOC(C)=O)C(C)=O)n1",
    "relation.operator": "=",
    "endpoint.result": 351
  },
  {
    "molecule": "CCCc1nc(NC(=O)Oc2ccccc2)nc(N2CCOCC2)n1",
    "relation.operator": ">",
    "endpoint.result": 1030
  },
  {
    "molecule": "CCCc1nc(NC(C)=O)nc(N2CCOCC2)n1",
    "relation.operator": "=",
    "endpoint.result": 905
  }
]

----------
- protocol.summary: Toxicity (Irwin's test)
- Format: in vivo
- conditions: mice, intraperitoneal
Entries annotated with measured Lethal dose (death of two animals out of three within 48 hours)
assay.readout: Lethal dose (death of two animals out of three within 48 hours) (mg/kg)

[
  {
    "compound": "CCCc1nc(NC(CO)(CO)CO)nc(N2CCOCC2)n1",
    "relation.operator": "=",
    "endpoint.result": 982
  },
  {
    "compound": "CCCc1nc(NC(=O)c2ccc(C)c(C)c2)nc(N2CCOCC2)n1",
    "relation.operator": "=",
    "endpoint.result": 1174
  },
  {
    "compound": "CCCc1nc(NC(C)=O)nc(N2CCOCC2)n1 [Compound 21a]",
    "relation.operator": "=",
    "endpoint.result": 996
  },
  {
    "compound": "CCCc1nc(N2CCOCC2)nc(N(CCO)Cc2ccccc2)n1",
    "relation.operator": ">",
    "endpoint.result": 1073
  },
  {
    "compound": "CCCc1nc(NC(CO)C(O)c2ccccc2)nc(N2CCOCC2)n1 (centres unmarked)",
    "relation.operator": "=",
    "endpoint.result": 1121
  }
]

----------
- protocol.summary: Toxicity (Irwin's test)
- Type: in vivo
- conditions: mouse, in vivo, ip
assay.readout: Lethal dose (death of two animals out of three within 48 hours) (mg/kg)

[
  {
    "molecule": "CCCc1nc(N2CCOCC2)nc(N(C)C(=O)C(C)C)n1",
    "endpoint.result": 922
  },
  {
    "molecule": "CCCc1nc(NC(CC)CO)nc(N2CCOCC2)n1 (stereo not shown)",
    "endpoint.result": 886
  },
  {
    "molecule": "CCCc1nc(N(C)CCO)nc(N2CCOCC2)n1",
    "endpoint.result": 844
  },
  {
    "molecule": "CCCc1nc(N2CCOCC2)nc(N(C)C(C)=O)n1 [Compound 25a]",
    "endpoint.result": 838
  }
]

----------
- protocol.summary: Toxicity (Irwin's test)
- Assay type: in vivo
- conditions: mice, intraperitoneal
assay.readout: Lethal dose (death of two animals out of three within 48 hours) (mg/kg)

[
  {
    "compound": "CCCc1nc(NCC(C)O)nc(N2CCOCC2)n1 (centres unmarked)",
    "endpoint.result": 563
  },
  {
    "compound": "CCCc1nc(NN(C)C)nc(N2CCOCC2)n1",
    "endpoint.result": 799
  },
  {
    "compound": "CCCc1nc(NCC(O)CC)nc(N2CCOCC2)n1 (centres unmarked)",
    "endpoint.result": 886
  },
  {
    "compound": "CCCc1nc(N2CCOCC2)nc(N(C)C(=O)c2ccccc2)n1.Cl",
    "endpoint.result": 1133
  },
  {
    "compound": "CCCc1nc(N2CCOCC2)nc(N(C)C(=O)c2ccc(OC)c(OC)c2)n1",
    "endpoint.result": 401
  }
]
